Attribution: ChEMBL document CHEMBL1156002

System: Bacillus cereus
Procedure details: Antibacterial activity against Bacillus cereus ATCC 7064 after 24 hrs by broth micro dilution method
Type: functional
Measurement setup: ATCC 7064, 24 h
Endpoint name: MIC (µg/mL)
Answer in µg/mL, number only, no unit symbol.

In the examples that follow, each entry is paired with its recorded MIC.
O=C1CCSSCCC(=O)Nc2nc(nc(-c3ccccc3)n2)NC(=O)CCSSCCC(=O)Nc2nc(nc(-c3ccccc3)n2)N1    6.25
O=C1CSSCC(=O)Nc2nc(nc(-c3ccccc3)n2)NC(=O)CSSCC(=O)Nc2nc(nc(-c3ccccc3)n2)N1    3.12
O=C1CSCC(=O)Nc2nc(nc(-c3ccccc3)n2)NC(=O)CSCC(=O)Nc2nc(nc(-c3ccccc3)n2)N1    6.25

Now consider the entry below.
Reported MIC of O=C1CCSCCC(=O)Nc2nc(nc(-c3ccccc3)n2)NC(=O)CCSCCC(=O)Nc2nc(nc(-c3ccccc3)n2)N1 : 12.5
